# System: Mycobacterium tuberculosis
# METHOD_NOTES: Antimycobacterial activity against Mycobacterium tuberculosis H37Rv ATCC 27294 assessed as inhibition of mycobacterial growth incubated for 2 weeks by MABA method
# Assay type: functional
PARAMETER: -logMIC
Give bare numbers.

Worked examples follow.
* COc1cc(C[C@@H](C)[C@@H](C)Cc2ccc(OC(=O)c3cccnc3)c(OC)c2)ccc1OC(=O)c1cccnc1 | 4.2
* COc1ccc(C[C@@H](C)[C@@H](C)Cc2ccc(OC)c(OC)c2)cc1OC | 4.35
* CCCCCCCC/C=C\CCCCCCCC(=O)Oc1ccc(C[C@H](C)[C@H](C)Cc2ccc(O)c(OC)c2)cc1OC (racemic) | 4.51

So what does the record say about -logMIC for `COc1cc(C[C@@H](C)[C@@H](C)Cc2ccc(OC(=O)c3ccccc3)c(OC)c2)ccc1OC(=O)c1ccccc1` ?
4.14
